Assay: Ex vivo biodistribution in PC-3 tumor-bearing mice
Conditions: mouse, kidneys, Uptake in kidneys, 24 h post-injection
Numbered stars: 1 amine (or outer) side, 2 acyl side, 3 side chain; on linkers, the order of the positions; unused ones are H or OH. Square brackets hold non-standard residues; d marks the D form. Peptide text beside a SMILES is read from it. * marks the point of attachment. DOTA = O=C(O)CN1CCN(CC(=O)O)CCN(CC(=O)*)CCN(CC(=O)O)CC1; NMeH = CN[C@@H](Cc1c[nH]cn1)C(=O)O; X1 = O=C(CN1CCC(N[*:1])CC1)[*:2]; Tle = CC(C)(C)[C@H](N)C(=O)O; Thz = O=C(O)[C@@H]1CSCN1
QUANTITY_NAME: tissue uptake at 24 h (%ID/g)
Numbers only, in %ID/g.

Use the examples below as a reference point.
[[record]]
molecule = "CC(C)C[C@@H](CN1CSC[C@H]1C(N)=O)NC(=O)[C@H](Cc1cnc[nH]1)NC(=O)CN(C)C(=O)[C@@H](NC(=O)[C@H](C)NC(=O)[C@H](Cc1c[nH]c2ccccc12)NC(=O)[C@H](CCC(N)=O)NC(=O)[C@@H](Cc1ccccc1)NC(=O)CN1CCC(NC(=O)CN2CCN(CC(=O)O)CCN(CC(=O)O)CCN(CC(=O)O)CC2)CC1)C(C)C [[^177Lu]Lu-TacsBOMB5, metal not drawn]"
observed_result = 1.38

[[record]]
molecule = "CC(C)C[C@H](NC(=O)[C@H](Cc1cnc[nH]1)N(C)C(=O)CNC(=O)[C@@H](NC(=O)[C@H](C)NC(=O)[C@H](Cc1c[nH]c2ccccc12)NC(=O)[C@H](Cc1c[nH]cn1)NC(=O)[C@@H](Cc1ccccc1)NC(=O)CN1CCC(NC(=O)CN2CCN(CC(=O)O)CCN(CC(=O)O)CCN(CC(=O)O)CC2)CC1)C(C)(C)C)C(=O)N1CSC[C@H]1C(N)=O [[^177Lu]Lu-LW01142, metal not drawn] ({DOTA}-[X1][dF]HWA[Tle]G[NMeH]L[Thz]-NH2)"
observed_result = 2.64


tissue uptake at 24 h reported for this molecule CC(C)C[C@H](NC(=O)[C@H](Cc1cnc[nH]1)N(C)C(=O)CNC(=O)[C@@H](NC(=O)[C@H](C)NC(=O)[C@H](Cc1c[nH]c2ccccc12)NC(=O)[C@H](CCC(N)=O)NC(=O)[C@@H](Cc1ccccc1)NC(=O)CN1CCC(NC(=O)CN2CCN(CC(=O)O)CCN(CC(=O)O)CCN(CC(=O)O)CC2)CC1)C(C)(C)C)C(=O)N1CSC[C@H]1C(N)=O [[^177Lu]Lu-LW01110, metal not drawn] : 1.46
